# target-desc: α2β2γ1 GABAA receptor subtype (Homo sapiens (Human), UniProt P47869+Q8N1C3)
# method-notes: Two-electrode voltage clamp electrophysiology in Xenopus oocytes expressing GABAA receptors (modulation of GABA EC20 current)
# Assay type: cell-based
# assay-context: % modulation of GABA EC20 = 100*(Fold increase-1); α2β2γ1 oocytes; compound at approx. 30-fold Ki
readout-kind: Efficacy (GABA)%

Below: 3 molecules and their reported Efficacy (GABA)%.
C[C@@H]1N=C(c2ncccc2F)c2c(ccc(C(F)(F)F)c2Cl)-n2nc(C(=O)N3CC4(CCOC4)C3)nc21 :: 178%
C[C@@H]1N=C(c2ncccc2F)c2c(ccc(C(F)(F)F)c2Cl)-n2cc(CO)nc21 :: 247%
C[C@@H]1N=C(c2c(F)cccc2F)c2c(ccc(Cl)c2Cl)-n2nc(N3CCS(=O)(=O)CC3)nc21 :: 41%

The record that follows has no Efficacy (GABA)% shown yet.
## Task Look up Efficacy (GABA)% with α2β2γ1 GABAA receptor subtype (Homo sapiens (Human), UniProt P47869+Q8N1C3) for this molecule: `COC1CN(C(=O)c2cn3c(n2)[C@H](C)N=C(c2ncccc2F)c2c-3ccc(C(F)(F)F)c2Cl)C1`
## Result 168%

###

# target-desc: human GABAA α1β3γ2 receptor (Homo sapiens (Human), UniProt P14867+P18507)
# method-notes: Radioligand binding assay for γ2-containing GABAA subtypes, [3H]Flumazenil competition (α1β3γ2)
# assay-context: Log[Ki α1β3γ2 (nM)/Ki α2β2γ1 (nM)]
readout-kind: LogSel
The reply should be a number, written without any unit.

## Task For `C[C@@H]1N=C(c2ncccc2F)c2c(ccc(Cl)c2Cl)-n2nc(C(=O)NC3CC3)nc21` , what is its reported LogSel?
## Result 1.49

## Task Same question, `C[C@@H]1N=C(c2c(F)cccc2F)c2c(ccc(Cl)c2Cl)-n2nc(N3CC(C#N)C3)nc21` this time
## Result 1.44

## Task Try this molecule next: `C[C@@H]1N=C(c2c(F)cccc2F)c2c(ccc(Cl)c2Cl)-n2nc(C#N)nc21`
## Result 1.62

## Task Record: `C[C@@H]1N=C(c2c(F)cccc2F)c2c(ccc(Cl)c2Cl)-n2nc(C(=O)N3CC[C@@H](F)C3)nc21`
## Result 2.20

###

# target-desc: human GABAA α1β2γ1 receptor (Homo sapiens (Human), UniProt P14867+Q8N1C3)
# method-notes: Radioligand binding assay for γ1-containing GABAA subtypes, [3H]RO7239181 competition (α1β2γ1)
readout-kind: pKi
Field pKi (float): negative decimal logarithm of the concentration in molar.

// solved cases for pKi follow
C[C@@H]1N=C(c2c(F)cccc2F)c2c(ccc(C(F)(F)F)c2Cl)-n2nc(C(=O)NCCF)nc21 [Example 106] :: 6.98
C[C@@H]1N=C(c2c(F)cccc2F)c2c(ccc(Cl)c2Cl)-n2nc(C(=O)NCCO)nc21 [Example 54] :: 7.82

## Task Bench note: what pKi did C[C@@H]1N=C(c2c(F)cccc2F)c2c(ccc(C(F)(F)F)c2Cl)-n2nc(N3CCOC3=O)nc21 [Example 121] show?
## Result 7.41

###

# target-desc: human GABAA α1β3γ2 receptor (Homo sapiens (Human), UniProt P14867+P18507)
# method-notes: Radioligand binding assay for γ2-containing GABAA subtypes, [3H]Flumazenil competition (α1β3γ2)
The reader will find reported Ki values listed item by item below.
Give the number; nM is assumed, so skip it.

C[C@@H]1N=C(c2ncccc2F)c2c(ccc(C(F)(F)F)c2Cl)-n2nc(NC(=O)NC3COC3)nc21 [Example 146] :: 13100

## Task Please report the recorded Ki for C[C@@H]1N=C(c2c(F)cccc2F)c2c(ccc(Cl)c2Cl)-n2nc(C(N)=O)nc21 [Example 35] .
## Result 778

## Task Another compound to check: CC(=O)NCc1nc2n(n1)-c1ccc(Cl)c(Cl)c1C(c1c(F)cccc1F)=N[C@H]2C [Example 67]
## Result 503

## Task Next record, please: COC1CN(C(=O)c2cn3c(n2)CN=C(c2ccccc2F)c2c-3ccc(Cl)c2Cl)C1 [Example 1]
## Result 638

## Task Also check C[C@H](O)CNC(=O)c1cn2c(n1)[C@H](C)N=C(c1ncccc1F)c1c-2ccc(C(F)(F)F)c1Cl [Example 155]
## Result 8990

## Task Okay, and C[C@@H]1N=C(c2c(F)cccc2F)c2c(ccc(C(F)(F)F)c2Cl)-n2nc(NC(=O)N3CCS(=O)(=O)CC3)nc21 [Example 131] ?
## Result 2430

## Task Also check C[C@@H]1N=C(c2c(F)cccc2F)c2c(ccc(Cl)c2Cl)-n2cc(C(=O)N3CCC3)nc21 [Example 70]
## Result 500

###

# target-desc: human GABAA α1β3γ2 receptor (Homo sapiens (Human), UniProt P14867+P18507)
# method-notes: Radioligand binding assay for γ2-containing GABAA subtypes, [3H]Flumazenil competition (α1β3γ2)
readout-kind: log10(Ki) (log10 of the value in nM)
// do not treat as linear: log10 of Ki, unit nM

C[C@@H]1N=C(c2c(F)cccc2F)c2c(ccc(Cl)c2Cl)-n2nc(C(=O)N3CC[C@H](F)C3)nc21 [Example 80] :: 2.99
C[C@@H]1N=C(c2ncccc2F)c2c(ccc(C(F)(F)F)c2Cl)-n2cc(C(=O)N[C@H]3C[C@H](O)C3)nc21 [Example 165] :: 3.89
C[C@@H]1N=C(c2c(F)cccc2F)c2c(ccc(C(F)(F)F)c2Cl)-n2nc(C(=O)N3CC(O)C3)nc21 [Example 58] :: 3.04

## Task Fill in the blank: the reported log10(Ki) of [2H]C([2H])([2H])NC(=O)c1nc2n(n1)-c1ccc(Cl)c(Cl)c1C(c1c(F)cccc1F)=NC2 [Example 7] is ____.
## Result 2.66

## Task Next record, please: [2H]C([2H])([2H])OC1CN(C(=O)c2nc3n(n2)-c2ccc(Cl)c(Cl)c2C(c2ncccc2F)=N[C@H]3C)C1 [Example 39]
## Result 3.62

## Task Try COc1nc2n(n1)-c1ccc(Cl)c(Cl)c1C(c1c(F)cccc1F)=N[C@H]2C [Example 91] next.
## Result 2.88

## Task For C[C@@H]1N=C(c2ncccc2F)c2c(ccc(C(F)(F)F)c2Cl)-n2cc(C(=O)N[C@H]3C[C@@H](O)C3)nc21 [Example 166] then?
## Result 4.01

###

# target-desc: human GABAA α1β3γ2 receptor (Homo sapiens (Human), UniProt P14867+P18507)
# method-notes: Radioligand binding assay for γ2-containing GABAA subtypes, [3H]Flumazenil competition (α1β3γ2)
Parameter pKi: see the listing below.
Note: pKi values are expressed as the negative base-10 logarithm of concentration in M.

Some entries whose results are on file:
C[C@@H]1N=C(c2c(F)cccc2F)c2c(ccc(Cl)c2Cl)-n2nc(C(=O)N3CC4(CCO4)C3)nc21 :: 6.23
C[C@@H]1N=C(c2c(F)cccc2F)c2c(ccc(Cl)c2Cl)-n2nc(N3CC(C#N)C3)nc21 :: 6.55
C[C@@H]1N=C(c2c(F)cccc2F)c2c(ccc(C(F)(F)F)c2Cl)-n2nc(NC(=O)NC3COC3)nc21 :: 5.79

## Task Value lookup for pKi; key = `Cc1cnc2n1-c1ccc(Cl)c(Cl)c1C(c1c(F)cccc1F)=N[C@H]2C`
## Result 6.63

## Task Also, `C[C@@H]1N=C(c2c(F)cccc2F)c2c(ccc(Cl)c2Cl)-n2nc(C(=O)N3CC(F)C3)nc21` please.
## Result 6.17

## Task Now try `C[C@@H]1N=C(c2ncccc2F)c2c(ccc(C(F)(F)F)c2Cl)-n2cc(C(=O)N3CC(C)(O)C3)nc21` .
## Result 4.87

## Task Repeat for the following compound: `CNC(=O)c1nc2n(n1)-c1ccc(Cl)c(Cl)c1C(c1c(F)cccc1F)=NC2`
## Result 5.84

###

The compounds listed here are annotated with their Fold increase h-GABA-A α2β2γ1 oocyte @ 30-fold Ki.
# target-desc: α2β2γ1 GABAA receptor subtype (Homo sapiens (Human), UniProt P47869+Q8N1C3)
# method-notes: Two-electrode voltage clamp electrophysiology in Xenopus oocytes expressing GABAA receptors (modulation of GABA EC20 current)
# Assay type: cell-based
# assay-context: Xenopus oocytes expressing α2β2γ1; compound at approx. 30-fold its Ki α2β2γ1; GABA EC20 current
Enter a number only.

Worked examples, 5 compounds total:
COC1CN(C(=O)c2cn3c(n2)CN=C(c2c(F)cccc2F)c2c-3ccc(Cl)c2Cl)C1 [Example 2] :: 1.42
C[C@@H]1N=C(c2c(F)cccc2F)c2c(ccc(Cl)c2Cl)-n2nc(C(=O)N3CC(C(F)F)C3)nc21 [Example 75] :: 1.41
C[C@@H]1N=C(c2c(F)cccc2F)c2c(ccc(Cl)c2Cl)-n2nc(C(=O)N3CC[C@@H](F)C3)nc21 [Example 76] :: 1.52
Cc1cn2c(n1)[C@H](C)N=C(c1c(F)cccc1F)c1c-2ccc(C(F)(F)F)c1Cl [Example 148] :: 1.73
COc1nc2n(n1)-c1ccc(Cl)c(Cl)c1C(c1c(F)cccc1F)=N[C@H]2C [Example 91] :: 1.75

## Task Sample C[C@@H]1N=C(c2c(F)cccc2F)c2c(ccc(Cl)c2Cl)-n2nc(C(=O)N3CC4(CCCCO4)C3)nc21 [Example 96] — what was its Fold increase h-GABA-A α2β2γ1 oocyte @ 30-fold Ki?
## Result 1.52

## Task Next entry: C[C@@H]1N=C(c2c(F)cccc2F)c2c(ccc(Cl)c2Cl)-n2nc(C(=O)N3CC4(CCCO4)C3)nc21 [Example 108]
## Result 1.46

## Task Subsequent entry: [2H]C([2H])([2H])OC1CN(C(=O)c2nc3n(n2)-c2ccc(Cl)c(Cl)c2C(c2c(F)cccc2F)=N[C@H]3C)C1 [Example 17]
## Result 1.44

## Task // repeat for Cc1nnc(-c2nc3n(n2)-c2ccc(C(F)(F)F)c(Cl)c2C(c2ncccc2F)=N[C@H]3C)o1 [Example 144] and report
## Result 2.69

## Task And then C[C@@H]1N=C(c2c(F)cccc2F)c2c(ccc(Cl)c2Cl)-n2nc(C(=O)N3CC(F)C3)nc21 [Example 40] , what is it?
## Result 1.89

## Task Field entry: Cc1nc2n(n1)-c1ccc(Cl)c(Cl)c1C(c1c(F)cccc1F)=N[C@H]2C [Example 21]
## Result 1.67

## Task Please give the result for C[C@@H]1N=C(c2ncccc2F)c2c(ccc(Cl)c2Cl)-n2nc(C(=O)N3CC4(CCO4)C3)nc21 [Example 98] too.
## Result 2.58

## Task Continue with C[C@@H]1N=C(c2ncccc2F)c2c(ccc(Cl)c2Cl)-n2nc(C(=O)N3CC4(CCCCO4)C3)nc21 [Example 101]
## Result 1.97

## Task Cool, now Fc1cccc(F)c1C1=NCc2nc(C(F)F)nn2-c2ccc(Cl)c(Cl)c21 [Example 33]
## Result 1.56

## Task And what about the compound C[C@@H]1N=C(c2c(F)cccc2F)c2c(ccc(Cl)c2Cl)-n2nc(C(=O)N3CCS(=O)(=O)CC3)nc21 [Example 36] ?
## Result 1.71
